# Tested on: SK-MEL-2 melanoma
# procedure-text: NCI-60 one-dose screen, 48 h (100 = growth as untreated, 0 = no growth, -100 = all killed)
# condition-details: 10 µM unless noted
Compounds without any hit were thinned out: in the full panel of roughly 83,000, 20% have a hit.
attribute-measured: growth (%)
Quick reminder: number only, in %, skip the unit.

Consider the following illustrative entries.
| compound | growth (%) |
| --- | --- |
| CNC12C3C4C1C1C2C3C41C(=O)N[C@H](C(=O)N(C)[C@H](C[C@@H](OC(C)=O)c1nc(C(=O)N[C@@H](Cc2ccccc2)C[C@H](C)C(=O)OC)cs1)C(C)C)C1CC1 (some centres undefined) | 25.4 |
| O=C(O)C(Cl)(Cl)C(F)(F)F | 105 |
| CN1CC(=O)N(O)C1(C)c1cccnc1 (centres undefined) | 94.6 |

// below: growth requested for another compound
growth in this record for C=C1[C@@H](C)[C@H]2[C@H](Cc3ccccc3)NC(=O)[C@]23[C@@H](O)/C=C/[C@@](C)(O)C(=O)[C@@H](C)C/C=C/[C@H]3[C@@H]1O : 65.1

Source: PubChem BioAssay (NCI)
